- Tested on: HCV genotype 1b subgenomic replicon
- assay_text: Anti-Hepatitis C replicon assay, genotype 1b (luciferase)
- Format: cell-based
- condition_description: Hepatitis C virus; luciferase activity measured 48 hours later; read-out: HCV Genotype 1B Replicon pEC50 (converted)
measurement_type: EC50 (nM)
Answer format: numeric, nM implied, no suffix.

Here's what some known entries look like.
FC(F)(F)c1cc(-c2cccnc2)nc2c1ccc1nc(-c3nnco3)cn12 [Compound 19] | 1580
CC(=O)n1c(-c2nnco2)cc2ccc3c(C(F)(F)F)cc(C(F)(F)F)nc3c21 [Compound 22] | 2000
CC(C)c1cc(-c2ccccc2)c2ccc3nc(-c4nnco4)cn3c2n1 [Compound 31] | 1260

Could you now consider this next molecule?
Exercise: Can you look up the measured EC50 of FC(F)(F)c1cc(C(F)(F)F)c2ccc3[nH]c(-c4cnco4)nc3c2n1 [Compound 28] for me?
Solution: 7940

----------
- Tested on: HCV genotype 1b subgenomic replicon
- assay_text: Anti-Hepatitis C replicon assay, genotype 1b (luciferase)
- Assay type: cell-based
- condition_description: Hepatitis C virus; luciferase activity measured 48 hours later; read-out: HCV Genotype 1B Replicon pEC50 (converted)
Attribute: EC50
Give a bare numeral; the unit nM is implied.

Field: example entries. Status: answers known.
FC(F)(F)c1cc(-c2ccsc2)nc2c1ccc1nc(-c3nnco3)cn12 | 501
FC(F)(F)c1cc(-c2ccccc2)nc2c1ccc1nc(-c3nnco3)cn12 | 1260
FC(F)(F)c1cc(C(F)(F)F)c2ccc3nc(-c4nnco4)cn3c2c1 | 3160
FC(F)(F)c1nc(C(F)(F)F)c2ccc3nc(-c4nnco4)cn3c2n1 | 794
CCc1cc(C(F)(F)F)c2ccc3nc(-c4nnco4)cn3c2n1 | 1000

Exercise: Please give the measured EC50 for this compound: `FC(F)(F)c1cc(C(F)(F)F)c2ccc3nc(-c4ccco4)cn3c2n1`
Solution: 3160

Exercise: Given `FC(F)(F)c1cc(C2CCCC2)nc2c1ccc1nc(-c3nnco3)cn12` , state its recorded EC50.
Solution: 251

Exercise: Entry under review: `FC(F)(F)c1cc(C(F)(F)F)c2ccc3nc(-c4cnco4)cn3c2n1` . Reported EC50?
Solution: 398

Exercise: Given the entry `FC(F)(F)c1cc(C(F)(F)F)c2ccc3cc(-c4nnco4)n(Cc4ccccc4)c3c2n1` , report its measured EC50.
Solution: 1000

Exercise: What does the record list as EC50 for `FC(F)(F)c1cc(C(F)(F)F)c2ccc3nc(-c4nnco4)cn3c2n1` ?
Solution: 200

----------
The following molecules are shown together with reported EC50 values.
- System: HCV genotype 1b subgenomic replicon
- assay_text: Anti-Hepatitis C replicon assay, genotype 1b (luciferase)
- Format: cell-based
- condition_description: Hepatitis C virus; luciferase activity measured 48 hours later; read-out: HCV Genotype 1B Replicon pEC50 (converted)
# number only, unit µM dropped from output

Example entries and their recorded answers appear below.
O=C(C1CCC1)n1c(-c2nnco2)cc2ccc3c(C(F)(F)F)cc(C(F)(F)F)nc3c21 | 2
FC(F)(F)c1cc(C(F)(F)F)c2ccc3cc(-c4nnco4)[nH]c3c2n1 | 1
FC(F)(F)c1cc(C(F)(F)F)c2ccc3nc(-c4ncco4)cn3c2n1 | 6.31

Exercise: What EC50 value was documented for this molecule, `CC(C)c1cc(C(C)C)c2ccc3nc(-c4nnco4)cn3c2n1` ?
Solution: 1

Exercise: Suppose we examine the molecule `Cc1cc(C)c2ccc3nc(-c4nnco4)cn3c2n1` ; what EC50 value has been reported?
Solution: 5.01

Exercise: Find the recorded EC50 belonging to `Cc1c(-c2nnco2)nc2ccc3c(C(F)(F)F)cc(C(F)(F)F)nc3n12` and report it.
Solution: 0.794
